Test system: RAW-Dual
Assay: NF-kB SEAP reporter activity, fold change vs agonist alone; cytotoxicity flag (confluency mask): not cytotoxic; higher = enhanced NF-kB activity
Settings: agonist: Pam3CSK4 (TLR2/1) 0.1 ug/mL
The full ranking holds about 2,900 compounds; the median of “NF-kB SEAP reporter activity, fold change vs agonist alone” is about 0.99, and the highest 2% start at about 2.6. The entries come from a sample that favours the highest values as a whole.
Entries and their NF-kB SEAP reporter activity
Please respond with just the number, no unit label.

Please review the following examples before continuing.
CC(Nc1cc(F)cc(F)c1)c1cc(C(=O)N(C)C)cc2c(=O)cc(N3CCOCC3)oc12 (stereo not drawn) (library stock concentration (final ~1000-fold dilution): 10 mM): 1.13
CCn1c(-c2nonc2N)nc2c(C#CC(C)(C)O)ncc(OCC3CCCNC3)c21 (stereo not drawn) (library stock concentration (final ~1000-fold dilution): 10 mM): 1.89

Value lookup for NF-kB SEAP reporter activity; key = CC(C)N(CCCNC(=O)Nc1ccc(C(C)(C)C)cc1)CC1OC(n2ccc3c(N)ncnc32)C(O)C1O (stereo not drawn) (library stock concentration (final ~1000-fold dilution): 10 mM)
1.14

====

Tested on: RAW-Dual
Assay: NF-kB SEAP reporter activity, fold change vs agonist alone; cytotoxicity flag (confluency mask): not cytotoxic; higher = enhanced NF-kB activity
Conditions: agonist: Pam2CSK4 (TLR2/6) 0.1 ug/mL
Over roughly 2,900 compounds, “NF-kB SEAP reporter activity, fold change vs agonist alone” has its median near 0.99; the highest 2% begin near 2.6. The sample as a whole holds a higher share of the highest values than the screen did.
Quantity kind: NF-kB SEAP reporter activity
Form field (numeric): enter value without unit.

O=C(c1ccc(C(=O)N2CCC(N3CCCC3)CC2)c(Nc2ccccc2)c1)N1CCC(N2CCCC2)CC1 (library stock concentration (final ~1000-fold dilution): 10 mM): 1.04

Give its NF-kB SEAP reporter activity value. Item: Nc1ccn(C2CCC(CO)O2)c(=O)n1 (stereo not drawn) (library stock concentration (final ~1000-fold dilution): 10 mM)
0.95

Data request, read-out NF-kB SEAP reporter activity, for CN(C)Cc1ccc(S(=O)(=O)n2ccc(/C=C/C(=O)NO)c2)cc1 (library stock concentration (final ~1000-fold dilution): 10 mM)
1.03

====

Recorded NF-kB SEAP reporter activity, one value per entry.
Tested on: RAW-Dual
Assay: NF-kB SEAP reporter activity, fold change vs agonist alone; higher = enhanced NF-kB activity
Conditions: library stock concentration (final ~1000-fold dilution): 10 mM; cytotoxicity flag (confluency mask): not cytotoxic; agonist: MPLA (TLR4) […]
The full ranking holds about 2,900 compounds; the median of “NF-kB SEAP reporter activity, fold change vs agonist alone” is about 0.99, and the highest 2% start at about 2.6. The sample as a whole holds a higher share of the highest values than the screen did.
Reply with the value as a number alone.

Answered cases to consult:
CN(C/C=C/C#CC(C)(C)C)Cc1cccc2ccccc12.Cl: 2.08
CC(C)(CNC(=O)c1cccc(-c2noc(C(F)(F)F)n2)c1)c1coc(-c2ccccc2)n1: 1.09
CCC(=O)OC1CC(=O)OC(C)C/C=C/C=C/C(O)C(C)CC(CC=O)C(OC2OC(C)C(OC3CC(C)(O)C(OC(=O)CC)C(C)O3)C(N(C)C)C2O)C1OC (stereo not drawn): 1.07
CN(C(=O)n1cnc(-c2ccc[n+]([O-])c2)c1)C1CCCCC1: 1.03
COC(=O)NC(C(=O)NC(Cc1ccccc1)C(O)CN(Cc1ccc(-c2ccccn2)cc1)NC(=O)C(NC(=O)OC)C(C)(C)C)C(C)(C)C.O=S(=O)(O)O (stereo not drawn): 1.56
CCOC(=O)C(CCc1ccccc1)NC1CSC(c2cccs2)CN(CC(=O)O)C1=O.Cl (stereo not drawn): 1.01
N#Cc1ccc(COCC2OC(n3c(NCc4ccc(Cl)c(Cl)c4)nc4c(N)ncnc43)C(O)C2O)cc1 (stereo not drawn): 0.966
CC(=O)OC12COC1CC(O)C1(C)C(=O)C(O)C3=C(C)C(OC(=O)C(O)C(NC(=O)OC(C)(C)C)c4ccccc4)CC(O)(C(OC(=O)c4ccccc4)C21)C3(C)C (stereo not drawn): 1.24

Record request: NF-kB SEAP reporter activity value, item CN(C/C=C/C#CC(C)(C)C)Cc1cccc2ccccc12
2.02

For CC(C)Nc1cc(-c2c[nH]c(C(=O)NC(CO)c3cccc(Cl)c3)c2)c(Cl)cn1 (stereo not drawn) , what is its reported NF-kB SEAP reporter activity?
0.246

Bench note: what NF-kB SEAP reporter activity did CCOc1cc(N2CCC(O)CC2)ccc1Nc1ncc2c(n1)N(C)c1ccccc1C(=O)N2C show?
1.91

Quick one: NF-kB SEAP reporter activity of CC12CC(O)C3CC1(OC1OC(CO)C(O)C(O)C1O)C3(COC(=O)c1ccccc1)C(=O)O2 (stereo not drawn) ?
1.04

Reported NF-kB SEAP reporter activity, compound CC(C)c1nc(N(C)S(C)(=O)=O)nc(-c2ccc(F)cc2)c1/C=C/C(O)CC(O)CC(=O)O (stereo not drawn) : ____
1.1

Can you look up the measured NF-kB SEAP reporter activity of COC1=CC(c2cc3ccccc3[nH]2)=N/C1=C\c1[nH]c(C)cc1C.CS(=O)(=O)O for me?
2.78

For the compound shown here, CC1=CC2(O)OC3(CC2=C(C)C)C(C)CCC13 (stereo not drawn) , give the reported NF-kB SEAP reporter activity.
1.03

Reported NF-kB SEAP reporter activity, compound O=C(O)CC(O)CC(O)C=Cc1c(C2CC2)nc2ccccc2c1-c1ccc(F)cc1 (stereo not drawn) : ____
2.05

# NF-kB SEAP reporter activity lookup, item CCNC(=O)Nc1ccc(-c2nc3c(c(N4CCOCC4C)n2)CCN(C2COC2)C3)cc1 (stereo not drawn)
1.23

Please look up its NF-kB SEAP reporter activity: COc1cc(N2CCN(C)CC2)ccc1Nc1ncc2c(n1)N(C)c1ccccc1C(=O)N2
1.03

====

Test system: RAW-Dual
Experiment: NF-kB SEAP reporter activity, fold change vs agonist alone; higher = enhanced NF-kB activity
Conditions: library stock concentration (final ~1000-fold dilution): 10 mM; cytotoxicity flag (confluency mask): not cytotoxic; agonist: MPLA (TLR4) […]
Whole data set: some 2,900 compounds, median “NF-kB SEAP reporter activity, fold change vs agonist alone” near 0.99, cut for the highest 2% near 2.6. Shown is part of a subset that was picked to be rich in the highest values.
Assign true whenever NF-kB SEAP reporter activity does not fall below 1; assign false whenever it does.

CNC(C)C(=O)NC(C(=O)N1CCCC1C(=O)Nc1snnc1-c1ccccc1)C1CCCCC1 (stereo not given): false

Please turn your attention to the following entry.
Hi team, for Cn1cc(/C=C/C(=O)c2cccc(F)c2)cc1/C=C/C(=O)NO , is the recorded NF-kB SEAP reporter activity at or above 1?
true

====

Test system: RAW-Dual
Experiment: NF-kB SEAP reporter activity, fold change vs agonist alone; cytotoxicity flag (confluency mask): not cytotoxic; higher = enhanced NF-kB activity
Settings: agonist: LPS (TLR4) 0.1 ug/mL
Over roughly 2,900 compounds, “NF-kB SEAP reporter activity, fold change vs agonist alone” has its median near 0.99; the highest 2% begin near 2.6. Many of the other results were omitted from the sample, so the highest values are more common in it than they were.
Quantity kind: NF-kB SEAP reporter activity
No unit in the answer, only the number.

Please review the entries below; each comes with its answer.
Cl.Cn1cc(C(=O)C2CCc3nc[nH]c3C2)c2ccccc21 (stereo not drawn) (library stock concentration (final ~1000-fold dilution): 10 mM): 1.01
COC12C(COC(N)=O)C3=C(C(=O)C(C)=C(N)C3=O)N1CC1NC12 (stereo not drawn) (library stock concentration (final ~1000-fold dilution): 10 mM): 2.79

Kindly consider the entry below.
Can you share its NF-kB SEAP reporter activity? I mean this compound: CC(C)CC(NP(=O)(O)OC1OC(C)C(O)C(O)C1O)C(=O)NC(Cc1c[nH]c2ccccc12)C(=O)O (stereo not drawn) (library stock concentration (final ~1000-fold dilution): 10 mM)
1.04

====

Recorded NF-kB SEAP reporter activity by entry
Tested on: RAW-Dual
Assay: NF-kB SEAP reporter activity, fold change vs agonist alone; cytotoxicity flag (confluency mask): not cytotoxic; higher = enhanced NF-kB activity
Details: agonist: LPS (TLR4) 0.1 ug/mL
The full ranking holds about 2,900 compounds; the median of “NF-kB SEAP reporter activity, fold change vs agonist alone” is about 0.99, and the highest 2% start at about 2.6. For the sample, the highest values were picked, then their nearest neighbours and some compounds at random.
Reply: number alone, nothing else.

// solved cases for NF-kB SEAP reporter activity follow
COc1cc(F)c(F)c(Nc2ccc(I)cc2F)c1NS(=O)(=O)C1(CC(O)CO)CC1 (stereo not given) (library stock concentration (final ~1000-fold dilution): 10 mM): 1.01
C=CC(=O)Nc1cccc(Sc2nc(Nc3ccc(N4CCN(C)CC4)cc3)ncc2Cl)c1 (library stock concentration (final ~1000-fold dilution): 10 mM): 0.254
Cc1cnc(Nc2ccc(N3CCN(C)CC3)cc2)nc1Nc1cccc(S(=O)(=O)NC(C)(C)C)c1 (library stock concentration (final ~1000-fold dilution): 10 mM): 7
CC(C)n1cnc2c(NCCc3ccc(O)cc3)nc(-c3csc4ccccc34)nc21 (library stock concentration (final ~1000-fold dilution): 10 mM): 3.02

Here's the next entry for you.
Which value of NF-kB SEAP reporter activity has been reported for CCOC(=O)C(CCc1ccccc1)NC1CCc2ccccc2N(CC(=O)O)C1=O.Cl (stereo not given) (library stock concentration (final ~1000-fold dilution): 10 mM) in the records?
0.997
